Experiment: Single-dose plasma pharmacokinetics of telavancin in pediatric subjects (noncompartmental analysis)
Type: in vivo, human
Conditions: human, in vivo, iv, 10 mg/kg, Cohort 1 (12–17 years), N = 13; single 10 mg/kg IV infusion over 60 min; plasma; mean ± SD; read-out: T 1/2 (terminal elimination half-life) (converted)
Method: The drug was infused over 60 min on Day 1. Blood samples were collected at 1, 1.5, 2, 6, 12, and 24 h following the start of infusion for PK analysis. Subjects with missing early PK samples were included in the PK population for plasma concentrations at each collected time point, but they were excluded from the PK modeling. […] CL and apparent steady-state volume of distribution (Vss) were also calculated from the plasma concentration-time data. […]
Readout Kind: half-life (h)

Structure Notation	Readout Kind	Unit Spec	Measured Number
CCCCCCCCCCNCCN[C@@]1(C)C[C@H](O[C@H]2[C@H](Oc3c4cc5cc3Oc3ccc(cc3Cl)[C@@H](O)[C@@H](NC(=O)[C@@H](CC(C)C)NC)C(=O)N[C@@H](CC(N)=O)C(=O)N[C@H]5C(=O)N[C@H]3C(=O)N[C@H](C(=O)N[C@H](C(=O)O)c5cc(O)c(CNCP(=O)(O)O)c(O)c5-c5cc3ccc5O)[C@H](O)c3ccc(c(Cl)c3)O4)O[C@H](CO)[C@@H](O)[C@@H]2O)O[C@@H](C)[C@H]1O	half-life	h	5.6

====

assay: Single-dose plasma pharmacokinetics of telavancin in pediatric subjects (noncompartmental analysis); type: in vivo, human; conditions: human, in vivo, iv, 10 mg/kg, Cohort 2 (6–11 years), N = 6; single 10 mg/kg IV infusion over 60 min; median (minimum–maximum); read-out: T max (time at maximum concentration)

Molecule	Tmax, h
CCCCCCCCCCNCCN[C@@]1(C)C[C@H](O[C@H]2[C@H](Oc3c4cc5cc3Oc3ccc(cc3Cl)[C@@H](O)[C@@H](NC(=O)[C@@H](CC(C)C)NC)C(=O)N[C@@H](CC(N)=O)C(=O)N[C@H]5C(=O)N[C@H]3C(=O)N[C@H](C(=O)N[C@H](C(=O)O)c5cc(O)c(CNCP(=O)(O)O)c(O)c5-c5cc3ccc5O)[C@H](O)c3ccc(c(Cl)c3)O4)O[C@H](CO)[C@@H](O)[C@@H]2O)O[C@@H](C)[C@H]1O [telavancin]	1.09

====

assay: Single-dose plasma pharmacokinetics of telavancin in pediatric subjects (noncompartmental analysis); format: in vivo, human; details: human, in vivo, iv, 10 mg/kg, Cohort 2 (6–11 years), N = 6; single 10 mg/kg IV infusion over 60 min; plasma; mean ± SD; read-out: C max (maximum plasma concentration)
Readout Kind: Cmax (µg/mL)

Structure Notation	Measured Number
CCCCCCCCCCNCCN[C@@]1(C)C[C@H](O[C@H]2[C@H](Oc3c4cc5cc3Oc3ccc(cc3Cl)[C@@H](O)[C@@H](NC(=O)[C@@H](CC(C)C)NC)C(=O)N[C@@H](CC(N)=O)C(=O)N[C@H]5C(=O)N[C@H]3C(=O)N[C@H](C(=O)N[C@H](C(=O)O)c5cc(O)c(CNCP(=O)(O)O)c(O)c5-c5cc3ccc5O)[C@H](O)c3ccc(c(Cl)c3)O4)O[C@H](CO)[C@@H](O)[C@@H]2O)O[C@@H](C)[C@H]1O	60.1

====

assay: Single-dose plasma pharmacokinetics of telavancin in pediatric subjects (noncompartmental analysis); format: in vivo, human; conditions: human, in vivo; Cohort 1 (12–17 years), N = 13; single 10 mg/kg IV infusion over 60 min; plasma; noncompartmental; mean ± SD; read-out: AUC0-last (area under the curve from time zero until the last PK sample)

Structure Notation	AUC(0-t) / µg·h/mL
CCCCCCCCCCNCCN[C@@]1(C)C[C@H](O[C@H]2[C@H](Oc3c4cc5cc3Oc3ccc(cc3Cl)[C@@H](O)[C@@H](NC(=O)[C@@H](CC(C)C)NC)C(=O)N[C@@H](CC(N)=O)C(=O)N[C@H]5C(=O)N[C@H]3C(=O)N[C@H](C(=O)N[C@H](C(=O)O)c5cc(O)c(CNCP(=O)(O)O)c(O)c5-c5cc3ccc5O)[C@H](O)c3ccc(c(Cl)c3)O4)O[C@H](CO)[C@@H](O)[C@@H]2O)O[C@@H](C)[C@H]1O	326

Values from paper PMC10649008
